- measured.target: hLigI (Homo sapiens)
- Construct: made in house
- Sequence (P18858 whole entry): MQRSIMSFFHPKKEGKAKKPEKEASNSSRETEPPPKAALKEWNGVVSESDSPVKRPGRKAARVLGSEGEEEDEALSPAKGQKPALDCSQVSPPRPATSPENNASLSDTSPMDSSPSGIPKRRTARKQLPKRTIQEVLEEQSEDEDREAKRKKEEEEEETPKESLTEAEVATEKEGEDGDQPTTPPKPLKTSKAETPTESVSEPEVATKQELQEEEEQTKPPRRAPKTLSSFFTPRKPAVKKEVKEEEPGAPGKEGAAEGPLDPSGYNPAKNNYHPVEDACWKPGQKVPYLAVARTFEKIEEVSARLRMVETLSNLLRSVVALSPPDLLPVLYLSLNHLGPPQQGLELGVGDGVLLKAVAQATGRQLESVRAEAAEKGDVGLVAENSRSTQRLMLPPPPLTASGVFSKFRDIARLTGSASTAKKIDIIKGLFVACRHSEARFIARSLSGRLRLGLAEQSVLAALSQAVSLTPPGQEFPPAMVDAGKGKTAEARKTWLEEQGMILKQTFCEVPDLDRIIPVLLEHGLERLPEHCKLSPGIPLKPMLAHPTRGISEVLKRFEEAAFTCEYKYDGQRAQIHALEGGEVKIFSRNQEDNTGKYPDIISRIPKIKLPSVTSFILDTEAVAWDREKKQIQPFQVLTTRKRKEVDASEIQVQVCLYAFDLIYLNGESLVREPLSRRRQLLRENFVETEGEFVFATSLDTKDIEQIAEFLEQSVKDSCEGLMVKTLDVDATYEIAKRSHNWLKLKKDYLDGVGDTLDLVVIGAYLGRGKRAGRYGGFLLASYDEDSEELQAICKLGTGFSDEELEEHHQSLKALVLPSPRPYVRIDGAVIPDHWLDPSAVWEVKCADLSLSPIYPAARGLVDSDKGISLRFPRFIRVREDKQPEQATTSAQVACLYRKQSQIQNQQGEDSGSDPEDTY
- test.details: High-throughput fluorescence-based DNA joining (ligation) assay
- Type: biochemical
- experimental.parameters: 100 uM; read-out: % activity Inhibition hLigI 100 uM
# inhibition at 100 µM per record follows
measured.quantity: inhibition at 100 µM (%)

{"compound": "CCCCC(=O)c1ccc(O)cc1O", "readout.value": 36.4}
{"compound": "CSc1ccc(C(=O)O)s1", "readout.value": 40.3}
{"compound": "Nc1nc(S)nc(O)c1/N=C/c1ccccc1", "readout.value": 68.8}
{"compound": "O=C(O)c1ccc(Sc2ccccn2)c([N+](=O)[O-])c1", "readout.value": 24.2}
{"compound": "O=C1Nc2c(C(=O)O)cccc2C1=O", "readout.value": 59.3}
{"compound": "O=C(O)c1ccc(C(=O)O)c(C(=O)O)c1", "readout.value": 36.4}
{"compound": "O=C(Cn1cnc([N+](=O)[O-])n1)N/N=C/c1ccc(O)cc1O", "readout.value": 25.9}
{"compound": "O=C(c1ccc(O)cc1)c1ccccc1O", "readout.value": 50.7}
{"compound": "COc1ccc(C(CC(=O)O)NC(=O)c2ccco2)cc1 (stereo not drawn)", "readout.value": 20.7}
{"compound": "COc1ccc(-c2cnc3c(O)nc(O)nc3n2)cc1", "readout.value": 52.5}
{"compound": "Cc1c(Br)cc(NCC(=O)N/N=C\\c2cc([N+](=O)[O-])ccc2O)cc1Br", "readout.value": 78.3}
{"compound": "C/C(O)=C1/C(=O)N(c2nc3ccccc3s2)N=C1c1ccccc1", "readout.value": 29.2}
{"compound": "O=C(O)Cn1nnnc1-c1ccc(F)cc1", "readout.value": 25.2}
{"compound": "Cc1[nH]c2ccc(C(=O)O)cc2c1CC(=O)O", "readout.value": 38.7}
{"compound": "O=c1[nH]ncc(N/N=C\\c2ccc(O)c([N+](=O)[O-])c2)c1Cl", "readout.value": 59.8}
{"compound": "O=C(O)CN1C(=O)c2ccc([N+](=O)[O-])cc2C1=O", "readout.value": 20.7}
{"compound": "CCC(Nc1ncnc2ccccc12)C(=O)O (stereo not drawn)", "readout.value": 24.3}
{"compound": "Cc1oc(C(=O)O)cc1CSCc1cc(C(=O)O)c(C)o1", "readout.value": 91}
{"compound": "COc1cccc(Cn2nnc(C(=O)O)c2C(=O)O)c1", "readout.value": 23.1}
{"compound": "O=C(O)CSc1cc(Cl)c2nonc2c1[N+](=O)[O-]", "readout.value": 60.6}
{"compound": "Nc1nonc1C(=O)O", "readout.value": 32.2}

----------
- measured.target: human DNA ligase III (Homo sapiens)
- Sequence (P49916 1-862 isoform P49916-4): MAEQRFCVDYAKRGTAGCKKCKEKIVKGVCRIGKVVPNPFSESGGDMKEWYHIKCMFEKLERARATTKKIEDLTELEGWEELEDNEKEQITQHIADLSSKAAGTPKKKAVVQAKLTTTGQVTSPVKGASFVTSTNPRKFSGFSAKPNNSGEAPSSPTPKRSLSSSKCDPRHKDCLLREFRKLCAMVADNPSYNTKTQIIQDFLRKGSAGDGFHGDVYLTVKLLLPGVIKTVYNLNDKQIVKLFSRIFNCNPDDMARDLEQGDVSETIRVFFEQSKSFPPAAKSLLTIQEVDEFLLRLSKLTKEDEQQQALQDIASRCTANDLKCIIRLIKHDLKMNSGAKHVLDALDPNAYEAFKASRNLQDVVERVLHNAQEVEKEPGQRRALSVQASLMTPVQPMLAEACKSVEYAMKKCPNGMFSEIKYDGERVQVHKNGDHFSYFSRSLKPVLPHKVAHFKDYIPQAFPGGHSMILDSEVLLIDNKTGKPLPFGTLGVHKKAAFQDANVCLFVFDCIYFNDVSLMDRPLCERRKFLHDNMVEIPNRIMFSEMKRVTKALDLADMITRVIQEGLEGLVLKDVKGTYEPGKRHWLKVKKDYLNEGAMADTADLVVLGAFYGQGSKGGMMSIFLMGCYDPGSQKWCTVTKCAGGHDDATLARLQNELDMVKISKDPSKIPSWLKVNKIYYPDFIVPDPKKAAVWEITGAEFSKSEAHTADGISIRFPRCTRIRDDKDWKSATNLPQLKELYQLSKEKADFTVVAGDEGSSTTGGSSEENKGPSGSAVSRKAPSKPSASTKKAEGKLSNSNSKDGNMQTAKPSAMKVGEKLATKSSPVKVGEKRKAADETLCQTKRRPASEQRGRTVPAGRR
- test.details: High-throughput fluorescence-based DNA joining (ligation) assay
- Type: biochemical
- experimental.parameters: 100 uM; Ø not defined (0 in Table 5A); read-out: % activity Inhibition hLigIII 100 uM
Where inhibition at 100 µM equals or exceeds 30%, the correct label is True; where it does not, the label is False.

{"compound": "O=C(O)c1ccc(C(=O)c2ccc3c(c2)C(=O)N(CCO)C3=O)cc1 [Compound 46]", "discrete.label": "False"}
{"compound": "COc1ccc(C(CC(=O)O)NC(=O)c2ccco2)cc1 (centres unmarked) [Compound 207]", "discrete.label": "False"}
{"compound": "Nc1nc(S)nc(O)c1/N=C/c1ccccc1 [Compound 189]", "discrete.label": "True"}
{"compound": "Cc1oc(C(=O)O)cc1CSCc1cc(C(=O)O)c(C)o1 [Compound 197]", "discrete.label": "True"}
{"compound": "O=C1Nc2c(C(=O)O)cccc2C1=O [Compound 25]", "discrete.label": "True"}
{"compound": "O=C(c1ccc(O)cc1)c1ccccc1O [Compound 200]", "discrete.label": "True"}
{"compound": "CCCCC(=O)c1ccc(O)cc1O [Compound 213]", "discrete.label": "False"}
{"compound": "N#Cc1cn(CCCCCCCc2[nH]c(=O)[nH]c(=O)c2C#N)c(=O)[nH]c1=O [Compound 209]", "discrete.label": "True"}
{"compound": "Cc1c(Br)cc(NCC(=O)N/N=C\\c2cc([N+](=O)[O-])ccc2O)cc1Br [Compound 67]", "discrete.label": "True"}
{"compound": "O=C(O)CSc1cc(Cl)c2nonc2c1[N+](=O)[O-] [Compound 64]", "discrete.label": "True"}
